Reference for the values: the supplement of paper PMC6757056

B1: library; a variant is named by its letters at N, in order (parent)
chain: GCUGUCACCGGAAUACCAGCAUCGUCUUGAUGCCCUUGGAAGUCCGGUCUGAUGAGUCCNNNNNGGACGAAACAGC

variants of: B1; assay: FACS-Seq fitted mean relative fluorescence mCherry/BFP with ligand (log10 relative fluorescence); ligand concentration (+) FACS-Seq: 1 mM; higher = higher reporter protein expression; details: HEK293T, ligand present: yes
Task for the reader: assign each of the following variants its reported FACS-Seq fitted mean (log10).
No unit in the answer, only the number.

Identify measured FACS-Seq fitted mean (log10) corresponding to "GCUGUCACCGGAAUACCAGCAUCGUCUUGAUGCCCUUGGAAGUCCGGUCUGAUGAGUCCUCGCCGGACGAAACAGC"
1.06

Identify measured FACS-Seq fitted mean (log10) corresponding to "GCUGUCACCGGAAUACCAGCAUCGUCUUGAUGCCCUUGGAAGUCCGGUCUGAUGAGUCCCUAAAGGACGAAACAGC"
0.454

Identify measured FACS-Seq fitted mean (log10) corresponding to "GCUGUCACCGGAAUACCAGCAUCGUCUUGAUGCCCUUGGAAGUCCGGUCUGAUGAGUCCACGAAGGACGAAACAGC"
0.661

Identify measured FACS-Seq fitted mean (log10) corresponding to "GCUGUCACCGGAAUACCAGCAUCGUCUUGAUGCCCUUGGAAGUCCGGUCUGAUGAGUCCUAACAGGACGAAACAGC"
0.813

Identify measured FACS-Seq fitted mean (log10) corresponding to "GCUGUCACCGGAAUACCAGCAUCGUCUUGAUGCCCUUGGAAGUCCGGUCUGAUGAGUCCAAACUGGACGAAACAGC"
0.604

Identify measured FACS-Seq fitted mean (log10) corresponding to "GCUGUCACCGGAAUACCAGCAUCGUCUUGAUGCCCUUGGAAGUCCGGUCUGAUGAGUCCCCCCUGGACGAAACAGC"
0.807

Identify measured FACS-Seq fitted mean (log10) corresponding to "GCUGUCACCGGAAUACCAGCAUCGUCUUGAUGCCCUUGGAAGUCCGGUCUGAUGAGUCCUUUAAGGACGAAACAGC"
0.695

Identify measured FACS-Seq fitted mean (log10) corresponding to "GCUGUCACCGGAAUACCAGCAUCGUCUUGAUGCCCUUGGAAGUCCGGUCUGAUGAGUCCCUCCCGGACGAAACAGC"
0.811

Identify measured FACS-Seq fitted mean (log10) corresponding to "GCUGUCACCGGAAUACCAGCAUCGUCUUGAUGCCCUUGGAAGUCCGGUCUGAUGAGUCCCCCCCGGACGAAACAGC"
0.862

Identify measured FACS-Seq fitted mean (log10) corresponding to "GCUGUCACCGGAAUACCAGCAUCGUCUUGAUGCCCUUGGAAGUCCGGUCUGAUGAGUCCAUCGCGGACGAAACAGC"
0.889

Identify measured FACS-Seq fitted mean (log10) corresponding to "GCUGUCACCGGAAUACCAGCAUCGUCUUGAUGCCCUUGGAAGUCCGGUCUGAUGAGUCCCAUACGGACGAAACAGC"
0.996
